# TEST SUMMARY: qHTS assay to identify small molecule antagonists of the estrogen related receptor (ERR) signaling pathway from Tox21 library - cell viability counter screen (AID 1224834); note: nearly all actives have a fitted effect of over 30% in size
# CONDITION INFO: ERR reporter cells viability, CellTiter-Fluor, 17.5 h; series mostly up to 92.4 µM
# Method: National Center for Advancing Translational Sciences [NCATS] NIH Chemical Genomics Center [NCGC] U.S. Environmental Protection Agency [EPA] National Institutes of Environmental Health Sciences [NIEHS] National Toxicology Program [NTP] […] The ERR cells were dispensed at 2,000 cells/5 ul/well in 1536-well white plates using a Multidrop dispenser. […] After 30-minute incubation at 37 C/5% CO2, the fluorescence intensity in the plates was measured using a ViewLux plate reader.
Inconclusive results are not listed. Calls of active or inactive are those of the source. Calls come from the whole dose curve; as a rule, active = well fitted cell-killing curve with a large enough effect in the repeat runs; inconclusive = weak or mixed curves; inactive = flat fitted curve, though single readings scatter.
// one of true = active, false = inactive, no free text

# count of solved cases: 5
INSERT INTO measurements (molecule, class_assignment) VALUES
  ('CC1CC(C)C(=O)C1=O (stereo not drawn)', 'false'),
  ('COc1cc(C(=O)NC2CCN(C)CC2)ccc1Nc1ncc2c(n1)N(C1CCCC1)CC(F)(F)C(=O)N2C', 'true'),
  ('Cc1cscn1', 'false'),
  ('CCC=CC#N', 'false'),
  ('CC(C)C(O)(c1ccc(OC(F)(F)F)cc1)c1cncnc1 (stereo not drawn)', 'false');

With those in mind, consider the next molecule.
input: Assay outcome for `CCCCCCCC/C=C\CCCCCCCCO` : what was it?
output: false

###

# TEST SUMMARY: qHTS assay to test for compound auto fluorescence at 460 nm (blue) in HepG2 cell free culture (AID 720685); note: % is set by controls: 0 for no effect and ±100 for the full control effect
# CONDITION INFO: Cell-free culture medium, blue autofluorescence 405/460 nm; series mostly up to 91.3 µM
# Excerpt: U.S. Tox21 Program National Center for Advancing Translational Sciences [NCATS] NIH Chemical Genomics Center [NCGC] U.S. Environmental Protection Agency [EPA] National Institutes of Environmental Health Sciences [NIEHS] National Toxicology Program [NTP] U.S. Food and Drug Administration [FDA] Tox21 Assay Overview: Compound auto fluorescence often interferes with screening of the compound library against various biological targets and signaling pathways. […] This assay includes the blue fluorescence data. […]
The source made the active and inactive calls. Calls come from the whole dose curve; as a rule, active = well fitted curve in the direction sought with a large enough effect in the repeat runs; inconclusive = weak or mixed curves; inactive = flat fitted curve, though single readings scatter.
REPORTED PROPERTY: fluorescence, % of fluorescent control

Example entries and their recorded answers appear below.
INSERT INTO results (compound, reported_property, meas_value) VALUES
  ('CCCCCCCCN', 'fluorescence, % of fluorescent control', 'inactive'),
  ('C=CC(=O)[O-].C=CC(=O)[O-].[Zn+2]', 'fluorescence, % of fluorescent control', 'inactive'),
  ('NC1[C@H]2CN(c3nc4c(cc3F)c(=O)c(C(=O)O)cn4-c3ccc(F)cc3F)C[C@@H]12 (stereo partly specified)', 'fluorescence, % of fluorescent control', 'inactive'),
  ('Cc1cc2c(OCC(CNC(C)(C)C)OC(=O)c3ccccc3)cccc2[nH]1 (stereo unspecified)', 'fluorescence, % of fluorescent control', 'inactive'),
  ('O=C1c2ccccc2C(=O)C1(O)O', 'fluorescence, % of fluorescent control', 'inactive');

input: Could you tell me which fluorescence, % of fluorescent control is on file for `CCOc1ccc(Cc2nccc3cc(OCC)c(OCC)cc23)cc1OCC` ?
output: -0.0254% [at 18.6 µM] (inactive)
